// provenance: patent US20140323457A1

# Test system: S. aureus strain NCTC 8325
# Test details: liquid culture-based hemolysis assay (secreted hemolysins, sheep red blood cells)
# Format: cell-based
# Reported conditions: Staphylococcus aureus, NCTC8325, Erythrocyte, Assay 4, hemolysin production, assess relative to AVU1
Assay metric: EC50 (µM)
Numbers only here, please. The scale is µM.

Noted for C=CCCCCCCC[C@H]1C(=O)O[C@@H]1CCc1ccccc1 [AVU1, reference compound] : its EC50 reads 31
